Entries and their measured TGI follow.
System: K-562 leukemia
ASSAY_TEXT: NCI tumour cell line growth inhibition, 48 h

{"COMPOUND_STRING": "Cc1ccc2[nH]c3c(C)c4cc[n+](C)cc4c(C)c3c2c1", "TGI": "63.4 µM"}
{"COMPOUND_STRING": "COc1cc(S(=O)(=O)Nc2ccc(-c3csc(/N=C\\c4ccccc4O)n3)cc2)ccc1Cl", "TGI": "> 100 µM"}
{"COMPOUND_STRING": "C#CCOCCCC(=O)O", "TGI": "> 100 µM"}
{"COMPOUND_STRING": "CCCc1c(O)c2ccccc2[nH]c1=O", "TGI": "> 100 µM"}

* * *

# TGI listing for each entry below
System: SF-295 CNS
ASSAY_TEXT: NCI tumour cell line growth inhibition, 48 h

{"COMPOUND": "Clc1ccc(Nc2ncnc3ccccc23)cc1", "EXPERIMENTAL_TARGET": "SF-295 CNS", "VALUE_OPERATOR": ">", "TGI / µM": 100}
{"COMPOUND": "CCOC(=O)C1C(c2ccccc2)C2(C#N)C(=N)OC1(C)C2(C#N)C#N (stereo not given)", "EXPERIMENTAL_TARGET": "SF-295 CNS", "VALUE_OPERATOR": ">", "TGI / µM": 100}
{"COMPOUND": "O=C(/C=C/c1cccnc1)c1ccccc1", "EXPERIMENTAL_TARGET": "SF-295 CNS", "VALUE_OPERATOR": "=", "TGI / µM": 29.3}
{"COMPOUND": "COc1cc(/C=C2\\N=C(c3ccccc3)N(c3ccc4c(c3)Sc3cc(N5C(=O)/C(=C/c6cc(OC)c(OC)c(OC)c6)N=C5c5ccccc5)ccc3N4)C2=O)cc(OC)c1OC", "EXPERIMENTAL_TARGET": "SF-295 CNS", "VALUE_OPERATOR": "=", "TGI / µM": 47.9}
{"COMPOUND": "COC(=O)CCC(=O)C(CC(=O)OC)C(=O)CCC(=O)NCCc1ccccc1 (stereo not given)", "EXPERIMENTAL_TARGET": "SF-295 CNS", "VALUE_OPERATOR": ">", "TGI / µM": 100}

* * *

Tested on: SR leukemia
ASSAY_TEXT: NCI tumour cell line growth inhibition, 48 h; in the data active = GI50 below about 0.43 µM; inactive = the rest
Outcome codes: y for active, n for inactive

{"COMPOUND": "O=C(/C=C/c1cccnc1)c1ccccc1", "CAT": "n"}
{"COMPOUND": "CN(CCNc1ccc(C(=N)N)cc1)c1ccc(C(=N)N)cc1", "CAT": "n"}
{"COMPOUND": "NNC(=S)N/N=C/c1ccccn1", "CAT": "n"}
{"COMPOUND": "CO[C@@H]1[C@H](N(C)C(=O)c2ccccc2)C[C@@H]2O[C@]1(C)n1c3ccccc3c3c4c(c5c6ccccc6n2c5c31)C(=O)NC4=O", "CAT": "n"}
{"COMPOUND": "Nc1n[nH]c2ccc([C@H]3[C@@H]4C5CCC(C5)[C@@H]4c4c(ccc5[nH]ncc45)N3S(=O)(=O)C3CC3)cc12 (stereo partly specified)", "CAT": "y"}
{"COMPOUND": "ClCCN(CCCl)c1ccc(OCc2ccccc2)cc1", "CAT": "y"}
